ASSAY_TARGET: human mGluR5 receptor (Homo sapiens)
Construct: expressed in transfected cells
Sequence (P41594 21-1212): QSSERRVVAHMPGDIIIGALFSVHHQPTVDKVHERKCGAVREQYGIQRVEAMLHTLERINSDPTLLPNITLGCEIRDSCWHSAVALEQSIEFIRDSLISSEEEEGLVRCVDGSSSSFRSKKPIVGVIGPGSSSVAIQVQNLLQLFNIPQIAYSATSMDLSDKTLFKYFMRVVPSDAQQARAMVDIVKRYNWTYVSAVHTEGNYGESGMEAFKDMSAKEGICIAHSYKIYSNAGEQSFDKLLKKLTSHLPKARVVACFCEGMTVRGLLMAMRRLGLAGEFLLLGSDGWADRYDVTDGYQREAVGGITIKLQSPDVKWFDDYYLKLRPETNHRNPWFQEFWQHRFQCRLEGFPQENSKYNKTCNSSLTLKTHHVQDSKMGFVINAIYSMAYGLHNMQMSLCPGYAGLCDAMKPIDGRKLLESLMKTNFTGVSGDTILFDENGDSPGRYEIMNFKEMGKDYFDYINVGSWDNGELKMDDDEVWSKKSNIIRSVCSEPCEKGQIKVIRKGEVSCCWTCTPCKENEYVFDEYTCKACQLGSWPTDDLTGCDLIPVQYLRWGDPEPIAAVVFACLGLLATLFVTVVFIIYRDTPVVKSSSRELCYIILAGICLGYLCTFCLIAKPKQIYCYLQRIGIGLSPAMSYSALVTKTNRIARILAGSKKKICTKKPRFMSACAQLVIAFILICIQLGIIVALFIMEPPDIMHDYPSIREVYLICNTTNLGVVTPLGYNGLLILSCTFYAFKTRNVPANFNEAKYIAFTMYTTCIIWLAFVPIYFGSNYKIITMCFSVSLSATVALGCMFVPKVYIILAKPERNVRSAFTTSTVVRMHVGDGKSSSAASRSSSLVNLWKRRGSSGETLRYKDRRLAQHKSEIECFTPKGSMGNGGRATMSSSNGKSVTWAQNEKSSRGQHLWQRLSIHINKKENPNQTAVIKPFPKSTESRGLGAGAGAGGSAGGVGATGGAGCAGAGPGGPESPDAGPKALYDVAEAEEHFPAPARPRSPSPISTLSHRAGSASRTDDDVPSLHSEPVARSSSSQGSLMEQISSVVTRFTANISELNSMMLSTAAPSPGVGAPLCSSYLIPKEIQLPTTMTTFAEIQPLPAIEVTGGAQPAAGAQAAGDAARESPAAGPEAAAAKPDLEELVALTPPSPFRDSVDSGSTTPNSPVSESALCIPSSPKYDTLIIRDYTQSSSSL
ASSAY_TEXT: intracellular Ca2+ mobilization assay, potentiation of glutamate EC20 response (FDSS)
Format: cell-based
CONDITIONS: HEK293; maximum % effect in concentration-response curve, relative to glutamate ECMax-treated wells; HEK-293 human mGluR5
OBSERVABLE: Emax (%)

See these solved cases before continuing.
smiles_notation=O=C1NCCc2nc(C#Cc3ccccc3)sc21 data_value=78
smiles_notation=O=C1c2sc(C#Cc3ccccc3)nc2CCN1Cc1ccccc1 data_value=90
smiles_notation=O=C1CCCc2nc(C#Cc3ccccc3)sc21 data_value=100
smiles_notation=O=C1CCCc2nc(CCc3ccccc3)sc21 data_value=51
smiles_notation=CN1CCOc2cc(-c3nc4c(s3)C(=O)CCC4)ccc21 data_value=77
smiles_notation=CN1CCc2nc(C#Cc3ccccc3)sc2C1=O data_value=79

(A) O=C1CCCc2nc(C#Cc3cncc(F)c3)sc21
(B) O=C1NCCCc2nc(-c3ccc(N4CCCCC4)nc3)sc21
# input Kindly identify the item with the lower Emax figure among these two: A and B Identify your selection by its label.
# output B

====

ASSAY_TARGET: human mGluR5 receptor (Homo sapiens)
ASSAY_TEXT: intracellular Ca2+ mobilization assay, potentiation of glutamate EC20 response (FDSS)
CONDITIONS: human mGluR5 stably expressed in HEK-293 cells; Fluo-4 AM; increase in glutamate EC20 (~0.2 μM) response
pEC50: −log10 of the molar value.
OBSERVABLE: pEC50

compound="CN1CCc2nc(C#Cc3ccccc3)sc2C1=O [Compound 4]" observable=pEC50 data_value=7.16

(1) O=C1NCCc2nc(C#Cc3ccccc3)sc21 [Compound 3]
(2) O=C1CCCc2nc(C#Cc3ccccc3)sc21 [Compound 1]
(3) O=C1c2sc(C#Cc3ccccc3)nc2CCN1Cc1ccccc1 [Compound 12]
# input Please produce an ascending ranking of these compounds based on pEC50. Submit the labels in the order that the ranking request calls for.
# output 3, 1, 2
(3: 6.33, 1: 6.66, 2: 7.29)
